settings: 373 K; 101.33 kPa; Liquid; Pycnometric method
Provide the reported mass density of each item.
# number only, unit kg/m3 dropped from output

Asked: Which measured mass density value corresponds to CCCCCC[N+](CC)(CC)CC.O=S(=O)([N-]S(=O)(=O)C(F)(F)F)C(F)(F)F [triethylhexylammonium bis((trifluoromethyl)sulfonyl)imide] ?
Given back: 1231.1

Asked: Can you look up the measured mass density of CCCCC[N+](CC)(CC)CC.O=S(=O)([N-]S(=O)(=O)C(F)(F)F)C(F)(F)F [triethylpentylammonium bis(trifluoromethylsulfonyl)imide] for me?
Given back: 1260.7

Asked: Any idea what its mass density is? The molecule is CCCCCCCCCCCC[N+](CC)(CC)CC.O=S(=O)([N-]S(=O)(=O)C(F)(F)F)C(F)(F)F
Given back: 1133.7

Asked: Look up mass density for this molecule: CCCCCCCC[N+](CC)(CC)CC.O=S(=O)([N-]S(=O)(=O)C(F)(F)F)C(F)(F)F [triethyloctylammonium bis[(trifluoromethyl)sulfonyl]imide]
Given back: 1192.3

====

Give measured mass density for each item. Keep answers brief.
details: 318 K; 101.33 kPa; Liquid; Pycnometric method
The response must be a number in kg/m3 with no trailing unit.

Asked: Which mass density value is on record for CCCCCCCCCCCC[N+](CC)(CC)CC.O=S(=O)([N-]S(=O)(=O)C(F)(F)F)C(F)(F)F ?
Given back: 1175.7

Asked: Any idea what mass density was measured for CCCCCCCC[N+](CC)(CC)CC.O=S(=O)([N-]S(=O)(=O)C(F)(F)F)C(F)(F)F [triethyloctylammonium bis[(trifluoromethyl)sulfonyl]imide] ?
Given back: 1235.2

Asked: # query: mass density of entry CCCCCC[N+](CC)(CC)CC.O=S(=O)([N-]S(=O)(=O)C(F)(F)F)C(F)(F)F [triethylhexylammonium bis((trifluoromethyl)sulfonyl)imide]
Given back: 1275.2

Asked: Could you share which mass density value was measured for CCCCC[N+](CC)(CC)CC.O=S(=O)([N-]S(=O)(=O)C(F)(F)F)C(F)(F)F [triethylpentylammonium bis(trifluoromethylsulfonyl)imide] ?
Given back: 1304.9

====

Consider the following compounds; for each one, report its viscosity.
conditions: 323 K; 101.33 kPa; Liquid; Capillary tube (Ostwald / Ubbelohde) method
Give just the number in mPa·s; leave the unit off.

Asked: Looking for the measured viscosity of CCCCCCCCCCCC[N+](CC)(CC)CC.O=S(=O)([N-]S(=O)(=O)C(F)(F)F)C(F)(F)F , can you help?
Given back: 78.71

Asked: Value lookup for viscosity; key = CCCCCC[N+](CC)(CC)CC.O=S(=O)([N-]S(=O)(=O)C(F)(F)F)C(F)(F)F [triethylhexylammonium bis((trifluoromethyl)sulfonyl)imide]
Given back: 52.03

Asked: Field request: viscosity | item: CCCCCCCC[N+](CC)(CC)CC.O=S(=O)([N-]S(=O)(=O)C(F)(F)F)C(F)(F)F [triethyloctylammonium bis[(trifluoromethyl)sulfonyl]imide]
Given back: 60.52

Asked: Consider the compound shown here: CCCCC[N+](CC)(CC)CC.O=S(=O)([N-]S(=O)(=O)C(F)(F)F)C(F)(F)F [triethylpentylammonium bis(trifluoromethylsulfonyl)imide] What is its recorded viscosity?
Given back: 46.74

====

settings: 338 K; 101.33 kPa; Liquid; Pycnometric method
endpoint_name: mass density (kg/m3)
Numeric only. Scale: kg/m3

Asked: Item under review: CCCCCC[N+](CC)(CC)CC.O=S(=O)([N-]S(=O)(=O)C(F)(F)F)C(F)(F)F [triethylhexylammonium bis((trifluoromethyl)sulfonyl)imide] . Reported mass density?
Given back: 1258.5

Asked: Endpoint output: mass density of CCCCCCCC[N+](CC)(CC)CC.O=S(=O)([N-]S(=O)(=O)C(F)(F)F)C(F)(F)F [triethyloctylammonium bis[(trifluoromethyl)sulfonyl]imide] . Value?
Given back: 1219

Asked: Name the recorded mass density for CCCCCCCCCCCC[N+](CC)(CC)CC.O=S(=O)([N-]S(=O)(=O)C(F)(F)F)C(F)(F)F .
Given back: 1160.7

Asked: Requested read-out: mass density. Entry: CCCCC[N+](CC)(CC)CC.O=S(=O)([N-]S(=O)(=O)C(F)(F)F)C(F)(F)F [triethylpentylammonium bis(trifluoromethylsulfonyl)imide]
Given back: 1289.1

Sourced from the NIST ThermoML archive (doi:10.1016/j.jct.2013.05.031)
